Biological target: Fuc(a1-2)Gal(b1-4)GlcNAc(b1-3)GalNAc
Assay: glycan array binding signal (z-score within array); higher = stronger binding
Conditions: glycan notation: IUPAC condensed, linker removed
Shown is part of a subset that was picked to be rich in the strongest signals.
propertyMeasured: glycan array binding signal (z-score)
Simply state the number, no unit and no words.

Field: example entries. Status: answers known.
Exercise: What does the data say about its glycan array binding signal (z-score)? Entry: Galatrox (Botrops atrox), P0DM53 (protein) NNCPQDWLPMNGLCYKIFDELKAWKDAEMFCRKYKPGCHLASIILYGESPEWAEGHSEVWLGLWDKKKDFSWEWTDR
Solution: -0.36

Exercise: What does the data say about its glycan array binding signal (z-score)? Entry: Epa1to9 (Candida glabrata) (protein) MGSSHHHHHHSSGLVPRGSHMTSSNDISLASKDPTTFPLGCSPDITTPKKGLSMELYSYDFRKKGSYPCWDAAYLDPNYPRTGYKSHRLLAKVDGVTGNINFYYHATKGCTPQLGHLPASYNYPKPLTMTNFTMLLYGYFRPKVTGFHTFTISADDLLFVNFGAGNAFDCCRRDSSADHFGNYQAYAIWGSKTAKDELTVHLDAGVYYPIRLFYNNRDYHGALSFTFKTESNENTVSDFSEYFFSLDDTEEGCPGLISYD
Solution: -0.34

Exercise: What does the data say about its glycan array binding signal (z-score)? Entry: SAOUHSC 02783 (Staphylococcus aureus), Q5HD69 (protein) MIHSKKLTLGICLVLLIILIVGYVIMTKTNGRNAQIKDTFNQTLKLYPTKNLDDFYDKEGFRDQEFKKGDKGTWIVNSEMVIEPKGKDMETRGMVLYINRNTRTTKGYYFISEMTDDSNGRPKDDEKRYPVKMEHNKIIPTKPLPNDKLKKEIENFKFFVQYGNFKDINDYKDGDISYNPNVPSYSAKYQLNNDDYNVQQLRKRYDIPTKQAPKLLLKGDGDLKGSSVGSRSLEFTFVENKEENIYFTDSVQYTPSEDTRYESN
Solution: 0.108

Now let's try a different one.
Exercise: What does the data say about its glycan array binding signal (z-score)? Entry: CFEM-CGl (Candida glabrata), Q6FRS0 (protein) VLATPPACLLACVAQVSKQSSQCHTLNQVGCFCENENTAIKNCLDSICPNGNSDAAYTAFKNSCGDVGKAVASV
Solution: 8.8
